- System: OVCAR-5 complex spheroids with HUVEC/MSC, viability, % test/control
- Assay Explanation: Anticancer human tumor OVCAR-5 cell line growth inhibition [AhR];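 note: spheroids exposed to compounds for 7 days; 100% = DMSO vehicle control wells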
- Test Conditions: second compound 10 µM; first compound 3 µM; stronger effect = lower value
Readout Type: viability, T/C (%)
Report as a plain number; the unit % is understood.

# lookup: viability, T/C of CCN(c1cc(-c2ccc(CN3CCOCC3)cc2)cc(C(=O)NCc2c(C)cc(C)[nH]c2=O)c1C)C1CCOCC1 + Cc1ccccc1N=Nc1ccc(NC(=O)c2ccnn2C)c(C)c1
98.2

# lookup: viability, T/C of CCN(c1cc(-c2ccc(CN3CCOCC3)cc2)cc(C(=O)NCc2c(C)cc(C)[nH]c2=O)c1C)C1CCOCC1 + Cc1cncc(-c2nc(NCCc3c[nH]c4ccccc34)c3ncn(C(C)C)c3n2)c1
1.33

# lookup: viability, T/C of CCN(c1cc(-c2ccc(CN3CCOCC3)cc2)cc(C(=O)NCc2c(C)cc(C)[nH]c2=O)c1C)C1CCOCC1 + CC(CO)NC(=O)c1cc(-c2ccc(Cl)cc2)nn(-c2cnn(C)c2)c1=O
99.9

# lookup: viability, T/C of O=C(C=Cn1cnc(-c2cc(C(F)(F)F)cc(C(F)(F)F)c2)n1)NNc1cnccn1 + Cc1ccccc1N=Nc1ccc(NC(=O)c2ccnn2C)c(C)c1
36.4

# lookup: viability, T/C of O=C(C=Cn1cnc(-c2cc(C(F)(F)F)cc(C(F)(F)F)c2)n1)NNc1cnccn1 + CC(CO)NC(=O)c1cc(-c2ccc(Cl)cc2)nn(-c2cnn(C)c2)c1=O
34.2

# lookup: viability, T/C of O=C(C=Cn1cnc(-c2cc(C(F)(F)F)cc(C(F)(F)F)c2)n1)NNc1cnccn1 + Cc1cncc(-c2nc(NCCc3c[nH]c4ccccc34)c3ncn(C(C)C)c3n2)c1
12.6
